Origin of values: paper PMC12267423

# method-notes: Pharmacokinetics of glimepiride and M1 in plasma, glimepiride alone versus with Ojeok-san, clinical crossover study
# condition-details: male, human, plasma, oral, 4 mg, t1/2,0–24 h, glimepiride 4 mg qd alone; mean ± SD; N = 16
quantity-name: half-life (h)

>>> recorded_result("CCC1=C(C)CN(C(=O)NCCc2ccc(S(=O)(=O)NC(=O)N[C@H]3CC[C@H](C)CC3)cc2)C1=O [Glimepiride]")
8.5

---

# method-notes: Pharmacokinetics of glimepiride and M1 in plasma, glimepiride alone versus with Ojeok-san, clinical crossover study
# condition-details: male, human, plasma, oral, 4 mg, Tmax, glimepiride 4 mg qd alone, day 2, plasma; median (min–max); N = 16
quantity-name: Tmax

>>> recorded_result("CCC1=C(C)CN(C(=O)NCCc2ccc(S(=O)(=O)NC(=O)N[C@H]3CC[C@H](C)CC3)cc2)C1=O [Glimepiride]")
"4.3 h"

---

# method-notes: Pharmacokinetics of glimepiride and M1 in plasma, glimepiride alone versus with Ojeok-san, clinical crossover study
# condition-details: male, human, plasma, oral, Tmax, glimepiride 4 mg qd + OJS 4.35 g tid, day 10, plasma; median (min–max); N = 13
quantity-name: Tmax (h)

>>> recorded_result("CCC1=C(C)CN(C(=O)NCCc2ccc(S(=O)(=O)NC(=O)N[C@H]3CC[C@H](C)CC3)cc2)C1=O [Glimepiride]")
5
